# ASSAY PROCEDURE: Liver Microsome Stability Assay, rat
# Format: in vitro ADME
# CONDITION SUMMARY: rat liver microsomes 1.0 mg/mL, 1.0 uM compound, 37° C., 1 mM NADPH
READOUT KIND: Liver Microsome Stability (Multiple Species): Rat - % Remaining after 30 min w/ NADPH (%)

1. O=C(Nc1nc(/C=C/c2ncn(C3CC3)c2Cl)cs1)c1cc(OCF)cn1Cc1ccnc(F)c1; 23

P = O=C(Nc1nc(/C=C/[C@H]2CC[C@H](C(F)(F)F)CC2)cs1)c1cccn1Cc1ccncc1
Q = Cc1cnc(F)cc1Cn1cc(OC(F)F)cc1C(=O)Nc1nc(/C=C/c2ncn(C3CC3)c2Cl)cs1
INPUT: Consider entries P and Q . Which has the numerically lower Liver Microsome Stability (Multiple Species): Rat - % Remaining after 30 min w/ NADPH (%)? The response must carry the label of the picked entry.
OUTPUT: P
(P: 5%, Q: 30%)

P = [2H]C([2H])(c1ccnc(F)c1)n1cc(OC)cc1C(=O)Nc1nc(/C=C/c2ncn(C3CC3)c2Cl)cs1
Q = O=C(Nc1nc(/C=C/C2CCCC2)cs1)c1cccn1Cc1ccnc(F)c1
INPUT: Consider entries P and Q . Which has the numerically lower Liver Microsome Stability (Multiple Species): Rat - % Remaining after 30 min w/ NADPH (%)? The response must carry the label of the picked entry.
OUTPUT: Q
(Q: 10%, P: 20%)

a = [2H]C([2H])(c1ccnc(F)c1)n1cc(Cl)cc1C(=O)Nc1nc(/C=C/c2ncn(C3CC3)c2Cl)cs1
b = O=C(Nc1nc(/C=C/[C@H]2CC[C@@H](C(F)(F)F)CC2)cs1)c1cccn1Cc1ccncc1
INPUT: Consider entries a and b . Which has the numerically lower Liver Microsome Stability (Multiple Species): Rat - % Remaining after 30 min w/ NADPH (%)? The response must carry the label of the picked entry.
OUTPUT: b
(b: 4%, a: 17%)

----------
# System: IL6R-ss+10aa/Gaussia Luciferase
# ASSAY PROCEDURE: Dox-induced IL-6R-ss-Gluc Assay
# Format: cell-based
# CONDITION SUMMARY: ratio of IC50s IL6R/PD1; Table 1
READOUT KIND: 24hr Dox Inducible IL6R(ss + 10)Gluc 293FRT/TO: IL6R/PD1
Provide a numeric answer; units are not to be included.

1. O=C(Nc1nc(/C=C/c2ccc3occc3c2)cs1)c1cccn1Cc1ccnc(F)c1; 6
2. O=C(Nc1nc(/C=C/c2ncn(C3CC3)c2Cl)cs1)c1cc(SC(F)F)cn1Cc1ccnc(F)c1; 187
3. Cc1cnc(F)cc1Cn1cc(OC(F)F)cc1C(=O)Nc1nc(/C=C/c2ncn(C3CC3)c2Cl)cs1; 1283
4. O=C(Nc1nc(/C=C/c2ncn(C3CC3)c2Cl)cs1)c1cc(OC(F)F)cn1Cc1ccnc(F)c1; 345
5. N#Cc1c(/C=C/c2csc(NC(=O)c3cc(OC(F)F)cn3Cc3ccnc(F)c3)n2)ncn1C1CC1; 235
6. O=C(Nc1nc(/C=C/C2CCC(F)(F)CC2)cs1)c1cccn1Cc1ccnc(F)c1; 8
7. CC(C)n1cnc(/C=C/c2csc(NC(=O)c3cccn3Cc3ccnc(F)c3)n2)c1C#N; 146
8. O=C(Nc1nc(/C=C/c2ncoc2C(F)(F)F)cs1)c1cc(Cl)cn1Cc1ccnc(F)c1; 15

// next entry
INPUT: # query: 24hr Dox Inducible IL6R(ss + 10)Gluc 293FRT/TO: IL6R/PD1 | item CC(C(F)F)n1cnc(/C=C/c2csc(NC(=O)c3cc(Cl)cn3Cc3ccnc(F)c3)n2)c1 (stereo not drawn) | system: IL6R-ss+10aa/Gaussia Luciferase
OUTPUT: 11
